tested on: Streptococcus mutans; assay: Antibacterial activity against Streptococcus mutans KCTC 3065 after 20 hrs by twofold serial dilution technique; format: functional; details: KCTC 3065, 20 h
parameter: MIC

smiles=CC(=O)Nc1ccc(C(=O)/C=C/c2ccc(/C=C3/SC(=S)N(CC(=O)O)C3=O)cc2)cc1 result="> 64 µg/mL"
smiles=COCOc1ccc(C(=O)/C=C/c2ccc(/C=C3/SC(=S)N(CC(=O)O)C3=O)cc2)cc1 result="> 64 µg/mL"
smiles=Cc1ccc(C(=O)/C=C/c2ccc(/C=C3/SC(=S)N(CC(=O)O)C3=O)cc2)c(C)c1 result="4 µg/mL"
smiles=O=C(O)CN1C(=O)/C(=C\c2ccc(/C=C/C(=O)c3ccccc3)cc2)SC1=S result="64 µg/mL"
smiles=O=C(O)CN1C(=O)CSC1=S result="> 64 µg/mL"

----------
tested on: Staphylococcus aureus; assay: Antibacterial activity against Staphylococcus aureus KCTC 209 after 20 hrs by twofold serial dilution technique; type: functional; details: KCTC 209, 20 h
parameter: MIC (µg/mL)

smiles=O=C(O)CN1C(=O)/C(=C\c2ccc(/C=C/C(=O)c3ccccc3)cc2)SC1=S subject_of_test="Staphylococcus aureus" unit_string=µg/mL lt_gt_eq== readout_number=32
smiles=O=C(O)CN1C(=O)/C(=C\c2ccc(/C=C/C(=O)c3cccc(Br)c3)cc2)SC1=S subject_of_test="Staphylococcus aureus" unit_string=µg/mL lt_gt_eq== readout_number=8
smiles=COCOc1ccc(C(=O)/C=C/c2ccc(/C=C3/SC(=S)N(CC(=O)O)C3=O)cc2)cc1 subject_of_test="Staphylococcus aureus" unit_string=µg/mL lt_gt_eq=> readout_number=64
smiles=CC(=O)Nc1ccc(C(=O)/C=C/c2ccc(/C=C3/SC(=S)N(CC(=O)O)C3=O)cc2)cc1 subject_of_test="Staphylococcus aureus" unit_string=µg/mL lt_gt_eq=> readout_number=64

----------
Let's look at some compounds and their measured MIC.
system: Staphylococcus aureus; experiment: Antibacterial activity against Staphylococcus aureus RN 4220 after 20 hrs by twofold serial dilution technique; format: functional; conditions: RN 4220, 20 h
parameter: MIC (µg/mL)

smiles=COCOc1ccc(C(=O)/C=C/c2ccc(/C=C3/SC(=S)N(CC(=O)O)C3=O)cc2)cc1 subject_of_test="Staphylococcus aureus" lt_gt_eq=> readout_number=64
smiles=O=C(O)CN1C(=O)CSC1=S subject_of_test="Staphylococcus aureus" lt_gt_eq=> readout_number=64
smiles=Cc1ccc(C(=O)/C=C/c2ccc(/C=C3/SC(=S)N(CC(=O)O)C3=O)cc2)c(C)c1 subject_of_test="Staphylococcus aureus" lt_gt_eq== readout_number=4
smiles=O=C(O)CN1C(=O)/C(=C\c2ccc(/C=C/C(=O)c3ccc(Cl)cc3)cc2)SC1=S subject_of_test="Staphylococcus aureus" lt_gt_eq== readout_number=4

----------
test system: Streptococcus mutans; experiment: Antibacterial activity against Streptococcus mutans KCTC 3065 after 20 hrs by twofold serial dilution technique; format: functional; conditions: KCTC 3065, 20 h
Let's look at some compounds and their measured log10 MIC.
parameter: log10 MIC (log10 of the value in mg/L)

smiles=O=C(O)CN1C(=O)/C(=C\c2ccc(/C=C/C(=O)c3ccc(Cl)cc3)cc2)SC1=S parameter="log10 MIC" readout_number=0.60
smiles=COc1cccc(C(=O)/C=C/c2ccc(/C=C3/SC(=S)N(CC(=O)O)C3=O)cc2)c1 parameter="log10 MIC" readout_number=0.90
smiles=O=C(O)CN1C(=O)/C(=C\c2ccc(/C=C/C(=O)c3cccc(Br)c3)cc2)SC1=S parameter="log10 MIC" readout_number=0.90
smiles=O=C(O)CN1C(=O)/C(=C\c2ccc(/C=C/C(=O)c3cccc(F)c3)cc2)SC1=S parameter="log10 MIC" readout_number=1.81
smiles=Cc1onc(-c2ccccc2)c1C(=O)N[C@@H]1C(=O)N2[C@@H]1SC(C)(C)[C@@H]2C(=O)O parameter="log10 MIC" readout_number=0.00
smiles=O=C(O)CN1C(=O)/C(=C\c2ccc(/C=C/C(=O)c3cccc(Cl)c3)cc2)SC1=S parameter="log10 MIC" readout_number=1.81
smiles=COc1ccc(C(=O)/C=C/c2ccc(/C=C3/SC(=S)N(CC(=O)O)C3=O)cc2)cc1 parameter="log10 MIC" readout_number=1.81
smiles=O=C(O)CN1C(=O)/C(=C\c2ccc(/C=C/C(=O)c3ccc(F)cc3)cc2)SC1=S parameter="log10 MIC" readout_number=0.60
smiles=O=C(O)CN1C(=O)/C(=C\c2ccc(/C=C/C(=O)c3ccc([N+](=O)[O-])cc3)cc2)SC1=S parameter="log10 MIC" readout_number=0.90
smiles=O=C(O)CN1C(=O)/C(=C\c2ccc(/C=C/C(=O)c3ccc(Br)cc3)cc2)SC1=S parameter="log10 MIC" readout_number=0.60
smiles=Cc1ccc(C(=O)/C=C/c2ccc(/C=C3/SC(=S)N(CC(=O)O)C3=O)cc2)cc1 parameter="log10 MIC" readout_number=1.81
smiles=CCn1cc(C(=O)O)c(=O)c2cc(F)c(N3CCNCC3)cc21 parameter="log10 MIC" readout_number=0.00
smiles=O=C(O)CN1C(=O)/C(=C\c2ccc(/C=C/C(=O)c3ccc(Cl)cc3Cl)cc2)SC1=S parameter="log10 MIC" readout_number=0.30

----------
tested on: Streptococcus mutans; experiment: Antibacterial activity against Streptococcus mutans KCTC 3289 after 20 hrs by twofold serial dilution technique; type: functional; conditions: KCTC 3289, 20 h
Let's look at some compounds and their measured MIC.
parameter: MIC (µg/mL)

smiles=COc1cccc(C(=O)/C=C/c2ccc(/C=C3/SC(=S)N(CC(=O)O)C3=O)cc2)c1 parameter=MIC unit_string=µg/mL lt_gt_eq== readout_number=8
smiles=O=C(O)CN1C(=O)/C(=C\c2ccc(/C=C/C(=O)c3cccc(F)c3)cc2)SC1=S parameter=MIC unit_string=µg/mL lt_gt_eq== readout_number=64
smiles=COc1ccc(C(=O)/C=C/c2ccc(/C=C3/SC(=S)N(CC(=O)O)C3=O)cc2)cc1 parameter=MIC unit_string=µg/mL lt_gt_eq== readout_number=64
smiles=O=C(O)CN1C(=O)/C(=C\c2ccc(/C=C/C(=O)c3ccccc3Br)cc2)SC1=S parameter=MIC unit_string=µg/mL lt_gt_eq=> readout_number=64

----------
tested on: Staphylococcus aureus; assay: Antibacterial activity against Staphylococcus aureus KCTC 209 after 20 hrs by twofold serial dilution technique; type: functional; settings: KCTC 209, 20 h
parameter: MIC (µg/mL)

smiles=COc1cccc(C(=O)/C=C/c2ccc(/C=C3/SC(=S)N(CC(=O)O)C3=O)cc2)c1 unit_string=µg/mL lt_gt_eq== readout_number=8
smiles=CCn1cc(C(=O)O)c(=O)c2cc(F)c(N3CCNCC3)cc21 unit_string=µg/mL lt_gt_eq== readout_number=4
smiles=O=C(O)CN1C(=O)/C(=C\c2ccc(/C=C/C(=O)c3ccccc3Cl)cc2)SC1=S unit_string=µg/mL lt_gt_eq=> readout_number=64
smiles=O=Cc1ccc(/C=C/C(=O)c2ccc(Cl)cc2Cl)cc1 unit_string=µg/mL lt_gt_eq== readout_number=64
smiles=Cc1ccc(C(=O)/C=C/c2ccc(/C=C3/SC(=S)N(CC(=O)O)C3=O)cc2)cc1 unit_string=µg/mL lt_gt_eq== readout_number=64
smiles=O=C(O)CN1C(=O)/C(=C\c2ccc(/C=C/C(=O)c3cccc(F)c3)cc2)SC1=S unit_string=µg/mL lt_gt_eq== readout_number=64
smiles=O=C(O)CN1C(=O)/C(=C\c2ccc(/C=C/C(=O)c3ccc([N+](=O)[O-])cc3)cc2)SC1=S unit_string=µg/mL lt_gt_eq== readout_number=4
smiles=Cc1ccc(C(=O)/C=C/c2ccc(/C=C3/SC(=S)N(CC(=O)O)C3=O)cc2)c(C)c1 unit_string=µg/mL lt_gt_eq== readout_number=4
smiles=O=C(O)CN1C(=O)/C(=C\c2ccc(/C=C/C(=O)c3ccc(F)cc3)cc2)SC1=S unit_string=µg/mL lt_gt_eq== readout_number=4
smiles=COc1ccc(C(=O)/C=C/c2ccc(/C=C3/SC(=S)N(CC(=O)O)C3=O)cc2)cc1 unit_string=µg/mL lt_gt_eq== readout_number=64
smiles=O=C(O)CN1C(=O)/C(=C\c2ccc(/C=C/C(=O)c3ccccc3Br)cc2)SC1=S unit_string=µg/mL lt_gt_eq=> readout_number=64
smiles=O=C(O)CN1C(=O)/C(=C\c2ccc(/C=C/C(=O)c3ccc(Cl)cc3)cc2)SC1=S unit_string=µg/mL lt_gt_eq== readout_number=4
smiles=COCOc1cccc(C(=O)/C=C/c2ccc(/C=C3/SC(=S)N(CC(=O)O)C3=O)cc2)c1 unit_string=µg/mL lt_gt_eq=> readout_number=64
smiles=O=C(O)CN1C(=O)/C(=C\c2ccc(/C=C/C(=O)c3ccccc3F)cc2)SC1=S unit_string=µg/mL lt_gt_eq=> readout_number=64
smiles=O=C(O)CN1C(=O)/C(=C\c2ccc(/C=C/C(=O)c3ccc(Br)cc3)cc2)SC1=S unit_string=µg/mL lt_gt_eq== readout_number=4
smiles=O=C(O)CN1C(=O)CSC1=S unit_string=µg/mL lt_gt_eq=> readout_number=64
smiles=O=C(O)CN1C(=O)/C(=C\c2ccc(/C=C/C(=O)c3ccc(Cl)cc3Cl)cc2)SC1=S unit_string=µg/mL lt_gt_eq== readout_number=2
smiles=Cc1onc(-c2ccccc2)c1C(=O)N[C@@H]1C(=O)N2[C@@H]1SC(C)(C)[C@@H]2C(=O)O unit_string=µg/mL lt_gt_eq== readout_number=1
smiles=O=C(O)CN1C(=O)/C(=C\c2ccc(/C=C/C(=O)c3cccc(Cl)c3)cc2)SC1=S unit_string=µg/mL lt_gt_eq== readout_number=64
